These measurements were taken from PubChem BioAssay (NCI).

system: SNB-75 CNS; assay: NCI tumour cell line growth inhibition, 48 h
Use y when the recorded TGI is no lower than 30 µM; use n when it is lower.

- compound: "O=C(C=P(c1ccccc1)(c1ccccc1)c1ccccc1)c1ccc(-c2cccc([N+](=O)[O-])c2)s1"
  class_label: "y"

Entry Cc1cc(CC(O)c2ccc(Cl)c(Cl)c2)nc(=O)[nH]1 (stereo not given) : is its TGI no less than 30 µM? y

Entry O=C(OC(CNc1cc(=O)n(Cc2ccccc2)c(=O)n1Cc1ccccc1)CN1CCCC1)c1ccccc1 (stereo not given) : is its TGI no less than 30 µM? y

---

test system: SF-295 CNS; assay: NCI tumour cell line growth inhibition, 48 h
measured_quantity: TGI (µM)
Return type: number; implicit unit µM.

Below: 5 compounds and their reported TGI.
- compound: "COc1cccc2c1OC(c1ccc(Cl)cc1)C([N+](=O)[O-])=C2 (stereo unspecified)"
  target_or_system: "SF-295 CNS"
  TGI / µM: 13.4
- compound: "NC(=O)NC1C(c2ccccc2)=C1c1ccccc1"
  target_or_system: "SF-295 CNS"
  TGI / µM: 54.6
- compound: "CN(C)CCCNC(=O)c1cc2[nH]c3c(cnc4ccc([N+](=O)[O-])cc43)c(=O)c2n1C"
  target_or_system: "SF-295 CNS"
  TGI / µM: 51.4
- compound: "Cc1cc([N+](=O)[O-])ccc1Nc1cccc(Cl)c1C"
  target_or_system: "SF-295 CNS"
  TGI / µM: 34.6
- compound: "COC(=O)C(=Cc1cc(OC)ccc1OC)C(=O)OC"
  target_or_system: "SF-295 CNS"
  TGI / µM: 82.1

Which measured TGI value corresponds to O=C1/C(=C/c2ccc(Br)cc2)COc2ccc(O)c(O)c21 ? 6.83

Which measured TGI value corresponds to CCN1CCN(C(c2ccc(C(F)(F)F)cc2)c2ccc3cccnc3c2O)CC1 (stereo unspecified) ? 4.39

Which measured TGI value corresponds to Cc1cc(CC(O)c2ccc(Cl)c(Cl)c2)nc(=O)[nH]1 (stereo unspecified) ? 90

---

system: 786-0 renal; assay: NCI tumour cell line growth inhibition, 48 h
measured_quantity: TGI (µM)
Return type: number; implicit unit µM.

Below: 3 molecules and their reported TGI.
- molecule: "O=C(Cc1ccc(/C=C/C(=O)c2ncc[nH]2)cc1)Nc1cc(F)c(F)c(F)c1"
  u: "µM"
  reported_value: 6.32
- molecule: "C=C1C(=O)C[C@H]2C(=C)C(=O)O[C@@H]2C2C1CC[C@@]2(C)O (stereo not given in full)"
  u: "µM"
  reported_value: 77.7
- molecule: "Cc1cc(CC(O)c2ccc(Cl)c(Cl)c2)nc(=O)[nH]1 (stereo not given)"
  u: "µM"
  reported_value: 38.7

Which measured TGI value corresponds to CCN1CCN(C(c2ccc(C(F)(F)F)cc2)c2ccc3cccnc3c2O)CC1 (stereo not given) ? 7.5

---

Recorded TGI by entry
system: NCI-H23 lung; assay: NCI tumour cell line growth inhibition, 48 h
Return type: number; implicit unit µM.

- given_smiles: "Oc1cn(-c2ccc(Cl)cc2)nc1-c1nnc(-c2ccccc2)o1"
  target_or_system: "NCI-H23 lung"
  measured_quantity: "TGI"
  reported_value: 1.01
- given_smiles: "CCCCCCCCCCCCCC1=NC(C)(C)CN1C(C)C"
  target_or_system: "NCI-H23 lung"
  measured_quantity: "TGI"
  reported_value: 3.11

Which measured TGI value corresponds to C=CCCCCC/C=C\[C@H](O)C#CC#C/C=C/CO ? 50.9

---

Recorded TGI by entry
test system: SK-MEL-5 melanoma; assay: NCI tumour cell line growth inhibition, 48 h
Return type: number; implicit unit µM.

Below: 3 molecules and their reported TGI.
- molecule: "CCCCCCNC(=O)c1cc(NCc2cc(O)ccc2O)ccc1O"
  TGI, µM: 25.4
- molecule: "O=C(CNc1ccc(Cl)cc1)Nc1ccc(-c2nc3ccccc3s2)cc1"
  TGI, µM: 5.42
- molecule: "CCOC(=O)C1=C(C)N(Cc2ccc(Cl)cc2Cl)C2(O)C=CC(=O)C3C(=O)N(c4ccccc4)C(=O)C132 (stereo not drawn)"
  TGI, µM: 8.57

Field: next molecule
# get_value(readout= TGI, system= SK-MEL-5 melanoma) for COc1cc(C2CC(c3cccc(Br)c3)=NN2C(C)=O)cc(OC)c1OC (stereo not drawn) 14.9

---

test system: HOP-62 NSCLC; experiment: NCI tumour cell line growth inhibition, 48 h
measured_quantity: TGI

Below: 2 compounds and their reported TGI.
- compound: "NC1CC(=O)c2c(Br)csc21 (stereo unspecified)"
  TGI: "> 100 µM"
- compound: "CN(Cc1cnc2nc(N)nc(N)c2n1)c1ccc(C(=O)NC(CCC(=O)NCCC(P(=O)(O)O)P(=O)(O)O)C(=O)O)cc1 (stereo unspecified)"
  TGI: "> 100 µM"

Which measured TGI value corresponds to COc1ccc2c(c1)CCCC(Br)C2=O (stereo unspecified) ? 33.4 µM

Which measured TGI value corresponds to COC1(OC)CC2C(=O)N(Cc3ccccc3)C1C(S(=O)(=O)c1ccccc1)C2S(=O)(=O)c1ccccc1 (stereo unspecified) ? > 100 µM

Which measured TGI value corresponds to CC1(c2cccs2)CC(c2cccs2)=C(C#N)C(=C(C#N)C#N)N1 (stereo unspecified) ? 39.7 µM

Which measured TGI value corresponds to CC(C)c1ccccc1NC(=O)CCc1n[nH]c(=S)o1 ? > 100 µM

Which measured TGI value corresponds to O=C(CCn1[nH]c(=O)c(Cl)c(Cl)c1=O)NO ? > 100 µM

Which measured TGI value corresponds to Cn1cc(CO)c2c1C(=O)C=C(N1CC1)C2=O ? < 0.0116 µM

Which measured TGI value corresponds to CN1CCN(CCOc2ccc(-c3cnc4c(-c5ccccc5F)cnn4c3)cc2)CC1 ? 3.54 µM

Which measured TGI value corresponds to COc1ccc(N2C(=O)C(=O)N(c3ccccc3[N+](=O)[O-])C2=S)cc1 ? > 100 µM

Which measured TGI value corresponds to Cc1nn(-c2ccccc2)c2nc(N3CCOCC3)nnc12 ? > 100 µM

---

tested on: M14 melanoma; test: NCI tumour cell line growth inhibition, 48 h
Recorded TGI by entry

Below: 3 compounds and their reported TGI.
- compound: "O=C(O)C1C2C=CC(O2)C1C(=O)NCc1ccccn1 (stereo not drawn)"
  target_or_system: "M14 melanoma"
  measured_quantity: "TGI"
  reported_value: "> 100 µM"
- compound: "CCOC(=O)C1(C#N)C(c2ccccc2)CC(O)(c2ccc(OC)cc2)C(C(=O)c2ccc(OC)cc2)C1c1ccccc1 (stereo not drawn)"
  target_or_system: "M14 melanoma"
  measured_quantity: "TGI"
  reported_value: "> 100 µM"
- compound: "O=[N+]([O-])c1ccc(C2=Nn3cnnc3SC2)o1"
  target_or_system: "M14 melanoma"
  measured_quantity: "TGI"
  reported_value: "32.8 µM"

Which measured TGI value corresponds to COc1cccc2c1OC(c1ccc(Cl)cc1)C([N+](=O)[O-])=C2 (stereo not drawn) ? 2.57 µM

Which measured TGI value corresponds to CCOC(=O)c1c(NC(=O)c2cccs2)sc2c1CCCC2 ? > 100 µM

Which measured TGI value corresponds to CCOc1cc2c(OCc3ccccc3)cc3c4cc(OC)c(OC)cc4c[n+](C)c3c2cc1OC ? 9.73 µM

---

test system: SNB-19 CNS; assay: NCI tumour cell line growth inhibition, 48 h
measured_quantity: TGI

Below: 8 molecules and their reported TGI.
- molecule: "COc1ccc(CN2C(=O)/C(=C\\C(=O)c3ccc(OCCN4CCCCC4)cc3)c3ccccc32)cc1"
  TGI: "17.1 µM"
- molecule: "COc1cc2cc3c4c(cc(OC)c(OC)c4c2cc1OC)CCN3C(=O)OCCN1CCNCC1"
  TGI: "43.3 µM"
- molecule: "Cc1cc(C)nc(NC(=O)c2ccc(Br)s2)c1"
  TGI: "> 100 µM"
- molecule: "COC(=O)CC(C#N)(OP1(=O)OC(c2ccccc2)C(C)N1C)c1ccccc1 (centres undefined)"
  TGI: "> 100 µM"
- molecule: "NS(=O)(=O)c1ccc(N=Nc2nc3[nH]c(=O)[nH]c(=O)c3[nH]2)cc1"
  TGI: "> 100 µM"
- molecule: "O=C(/C=C/c1ccccc1O)c1ccccc1O"
  TGI: "> 100 µM"
- molecule: "COc1cc2nc(-c3ccc(Cl)cc3)cc(OCCCN3CCCCC3)c2cc1OC"
  TGI: "> 100 µM"
- molecule: "Clc1nc2ccccc2nc1CI"
  TGI: "37.4 µM"

Which measured TGI value corresponds to CN1CCN(C(=O)CCNC(=O)Cc2ccc(C(=O)c3ccccc3)cc2)CC1 ? > 100 µM

Which measured TGI value corresponds to CC(C)c1ccccc1NC(=O)CCc1n[nH]c(=S)o1 ? > 100 µM

Which measured TGI value corresponds to C1C2CC3CC1CC(Nc1nc(NC45CC6CC(CC(C6)C4)C5)nc(NC45CC6CC(CC(C6)C4)C5)n1)(C2)C3 ? > 100 µM

Which measured TGI value corresponds to COc1ccc(C(=O)C(c2ccc(OC)cc2)C2(O)C(=O)Nc3ccc([N+](=O)[O-])cc32)cc1 (centres undefined) ? > 100 µM

Which measured TGI value corresponds to CC(C)(C)CC(C)(C)c1cc2c(O)c(c1)Cc1cc(C(C)(C)CC(C)(C)C)cc(c1O)Cc1cc(C(C)(C)CC(C)(C)C)cc(c1O)Cc1cc(C(C)(C)CC(C)(C)C)cc(c1O)C2 ? > 100 µM

Which measured TGI value corresponds to O/N=C/C1C(OCc2ccccc2)C(OCc2ccccc2)C(OCc2ccccc2)CN1Cc1ccccc1 (centres undefined) ? > 100 µM

Which measured TGI value corresponds to COc1ccc(/C=C(/C(=O)N2CCN(c3ccccc3)CC2)c2cc(OC)c(OC)c(OC)c2)cc1O ? > 100 µM

Which measured TGI value corresponds to O=C(Nc1nc2ccc(C(F)(F)F)cc2s1)c1cc(Cl)ccc1O ? > 100 µM
